# SYSTEM_NAME: PI3K-α (Homo sapiens, UniProt P42336)
# Sequence (P42336 whole entry, species assumed): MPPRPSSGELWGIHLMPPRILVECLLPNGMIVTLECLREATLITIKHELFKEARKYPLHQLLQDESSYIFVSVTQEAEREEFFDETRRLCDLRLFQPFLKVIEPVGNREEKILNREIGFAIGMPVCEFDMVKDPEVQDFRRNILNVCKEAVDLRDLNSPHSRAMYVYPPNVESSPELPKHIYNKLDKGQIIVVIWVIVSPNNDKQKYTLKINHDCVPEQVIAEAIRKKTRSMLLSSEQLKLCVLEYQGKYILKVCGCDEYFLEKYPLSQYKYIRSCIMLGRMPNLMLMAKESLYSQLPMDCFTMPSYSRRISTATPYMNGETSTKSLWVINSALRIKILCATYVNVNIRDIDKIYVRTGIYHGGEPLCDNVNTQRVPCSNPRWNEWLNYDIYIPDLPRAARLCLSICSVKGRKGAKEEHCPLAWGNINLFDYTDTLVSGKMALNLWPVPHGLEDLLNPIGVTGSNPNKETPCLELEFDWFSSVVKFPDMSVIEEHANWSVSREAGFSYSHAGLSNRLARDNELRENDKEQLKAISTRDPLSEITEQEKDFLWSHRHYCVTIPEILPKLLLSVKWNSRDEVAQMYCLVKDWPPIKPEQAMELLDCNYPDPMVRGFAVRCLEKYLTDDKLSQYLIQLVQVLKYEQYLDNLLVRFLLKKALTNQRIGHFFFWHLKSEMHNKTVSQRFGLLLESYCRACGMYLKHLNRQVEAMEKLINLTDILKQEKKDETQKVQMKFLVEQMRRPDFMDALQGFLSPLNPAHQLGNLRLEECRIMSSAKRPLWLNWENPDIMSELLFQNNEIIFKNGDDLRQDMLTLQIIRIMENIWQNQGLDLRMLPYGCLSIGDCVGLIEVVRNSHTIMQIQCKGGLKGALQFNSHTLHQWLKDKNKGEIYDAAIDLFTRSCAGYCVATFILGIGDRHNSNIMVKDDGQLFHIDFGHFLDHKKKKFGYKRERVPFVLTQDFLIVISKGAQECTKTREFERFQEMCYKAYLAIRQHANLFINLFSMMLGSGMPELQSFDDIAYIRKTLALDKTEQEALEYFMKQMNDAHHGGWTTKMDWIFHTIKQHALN
# Sequence (P27986 whole entry partner, species assumed): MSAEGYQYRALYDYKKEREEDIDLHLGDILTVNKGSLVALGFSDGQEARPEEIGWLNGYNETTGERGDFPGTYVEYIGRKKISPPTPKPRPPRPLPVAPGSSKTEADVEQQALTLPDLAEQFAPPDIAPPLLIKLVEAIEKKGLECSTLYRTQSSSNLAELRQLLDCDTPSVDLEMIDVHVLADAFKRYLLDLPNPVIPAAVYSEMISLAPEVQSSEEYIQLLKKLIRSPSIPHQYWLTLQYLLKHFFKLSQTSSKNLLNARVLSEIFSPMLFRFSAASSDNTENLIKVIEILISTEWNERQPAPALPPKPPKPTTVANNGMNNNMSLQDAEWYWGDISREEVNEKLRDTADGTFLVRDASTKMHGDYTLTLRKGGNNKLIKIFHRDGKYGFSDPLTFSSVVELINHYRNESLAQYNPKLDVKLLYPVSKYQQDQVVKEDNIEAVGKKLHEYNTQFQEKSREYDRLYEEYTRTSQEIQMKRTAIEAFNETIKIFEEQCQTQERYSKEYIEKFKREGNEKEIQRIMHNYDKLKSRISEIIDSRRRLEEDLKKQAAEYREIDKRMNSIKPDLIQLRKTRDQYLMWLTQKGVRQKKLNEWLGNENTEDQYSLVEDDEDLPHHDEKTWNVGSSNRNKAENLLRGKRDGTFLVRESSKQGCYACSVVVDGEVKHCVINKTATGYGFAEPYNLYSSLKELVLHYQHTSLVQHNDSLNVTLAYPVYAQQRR
# PROTOCOL_SUMMARY: PI3K-alpha fluorescence polarization assay
# PROTOCOL_CONDITIONS: read-out: IC50 PI3Kα
Here, each record is paired with measured IC50 data.

{"columns": ["SMILES_NOTATION", "VALUE_OBSERVED"],
 "data": [
  ["CC(C)c1nc(-c2ccc(NC(=O)Nc3ccc(I)cc3)cc2)nc(N2CCOCC2)n1", "586 nM"],
  ["O=C(Nc1ccc(C(=O)NCCN2CCCCC2)cc1)Nc1ccc(-c2nc(N3CCOCC3)nc(N3C4CCCC3COC4)n2)cc1", "5 nM"],
  ["CCc1nc(-c2ccc(NC(=O)Nc3ccc(C(=O)NC4CCN(C)CC4)cc3)cc2)nc(N2CCOCC2)n1", "2 nM"]
]}

// switching to the query compound
For the compound "CC(C)c1nc(-c2ccc(NC(=O)Nc3ccc(C(=O)NC4CN(C)C4)cc3)cc2)nc(N2CCOCC2)n1" , give its measured IC50 value.
3 nM

* * *

# SYSTEM_NAME: PI3K-γ (Homo sapiens, UniProt P48736)
# Sequence (P48736 whole entry, species assumed): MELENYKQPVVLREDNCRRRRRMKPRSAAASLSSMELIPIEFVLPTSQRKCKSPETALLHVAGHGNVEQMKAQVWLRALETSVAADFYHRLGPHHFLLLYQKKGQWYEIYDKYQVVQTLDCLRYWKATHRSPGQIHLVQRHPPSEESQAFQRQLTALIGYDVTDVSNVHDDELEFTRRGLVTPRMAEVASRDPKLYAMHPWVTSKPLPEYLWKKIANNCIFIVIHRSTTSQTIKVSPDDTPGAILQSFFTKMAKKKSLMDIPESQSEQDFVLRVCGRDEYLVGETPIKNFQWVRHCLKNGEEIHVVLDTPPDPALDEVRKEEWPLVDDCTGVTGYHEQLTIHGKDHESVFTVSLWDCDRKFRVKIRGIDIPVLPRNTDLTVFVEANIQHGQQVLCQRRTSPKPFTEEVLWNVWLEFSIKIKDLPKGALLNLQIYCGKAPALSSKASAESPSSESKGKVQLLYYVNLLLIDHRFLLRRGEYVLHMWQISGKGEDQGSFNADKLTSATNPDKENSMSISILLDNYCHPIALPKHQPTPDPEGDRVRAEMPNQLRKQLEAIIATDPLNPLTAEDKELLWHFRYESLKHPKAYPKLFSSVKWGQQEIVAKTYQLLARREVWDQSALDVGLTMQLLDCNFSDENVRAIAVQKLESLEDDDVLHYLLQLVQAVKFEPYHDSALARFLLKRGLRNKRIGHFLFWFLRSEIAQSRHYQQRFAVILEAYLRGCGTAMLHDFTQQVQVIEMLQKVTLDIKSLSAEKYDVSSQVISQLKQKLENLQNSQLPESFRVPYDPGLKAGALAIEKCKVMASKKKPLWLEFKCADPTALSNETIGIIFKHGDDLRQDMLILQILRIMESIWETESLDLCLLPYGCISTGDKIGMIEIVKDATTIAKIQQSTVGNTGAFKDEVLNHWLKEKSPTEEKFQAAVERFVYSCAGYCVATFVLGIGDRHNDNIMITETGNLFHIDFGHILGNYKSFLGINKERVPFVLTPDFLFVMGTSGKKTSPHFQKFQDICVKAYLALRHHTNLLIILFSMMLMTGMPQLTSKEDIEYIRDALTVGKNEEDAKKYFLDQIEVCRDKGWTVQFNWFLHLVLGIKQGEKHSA
# PROTOCOL_SUMMARY: PI3K-gamma fluorescence polarization assay
# PROTOCOL_CONDITIONS: read-out: IC50 PI3Kγ; listed as 536
MEASURED_QUANTITY: pIC50
Scale explanation: pIC50 corresponds to minus log10 of a concentration expressed in moles per litre.

For the compound CCc1nc(-c2ccc(NC(=O)Nc3ccc(C(=O)N4CCN(C)CC4)cc3)cc2)nc(N2CCOCC2)n1 [Example 236] , give its measured pIC50 value.
7.89

* * *

Here, each record is paired with measured pIC50 data.
# SYSTEM_NAME: Human mTOR (FLAG-TOR) (Homo sapiens)
# Sequence (P42345 1360-2549 limits assumed): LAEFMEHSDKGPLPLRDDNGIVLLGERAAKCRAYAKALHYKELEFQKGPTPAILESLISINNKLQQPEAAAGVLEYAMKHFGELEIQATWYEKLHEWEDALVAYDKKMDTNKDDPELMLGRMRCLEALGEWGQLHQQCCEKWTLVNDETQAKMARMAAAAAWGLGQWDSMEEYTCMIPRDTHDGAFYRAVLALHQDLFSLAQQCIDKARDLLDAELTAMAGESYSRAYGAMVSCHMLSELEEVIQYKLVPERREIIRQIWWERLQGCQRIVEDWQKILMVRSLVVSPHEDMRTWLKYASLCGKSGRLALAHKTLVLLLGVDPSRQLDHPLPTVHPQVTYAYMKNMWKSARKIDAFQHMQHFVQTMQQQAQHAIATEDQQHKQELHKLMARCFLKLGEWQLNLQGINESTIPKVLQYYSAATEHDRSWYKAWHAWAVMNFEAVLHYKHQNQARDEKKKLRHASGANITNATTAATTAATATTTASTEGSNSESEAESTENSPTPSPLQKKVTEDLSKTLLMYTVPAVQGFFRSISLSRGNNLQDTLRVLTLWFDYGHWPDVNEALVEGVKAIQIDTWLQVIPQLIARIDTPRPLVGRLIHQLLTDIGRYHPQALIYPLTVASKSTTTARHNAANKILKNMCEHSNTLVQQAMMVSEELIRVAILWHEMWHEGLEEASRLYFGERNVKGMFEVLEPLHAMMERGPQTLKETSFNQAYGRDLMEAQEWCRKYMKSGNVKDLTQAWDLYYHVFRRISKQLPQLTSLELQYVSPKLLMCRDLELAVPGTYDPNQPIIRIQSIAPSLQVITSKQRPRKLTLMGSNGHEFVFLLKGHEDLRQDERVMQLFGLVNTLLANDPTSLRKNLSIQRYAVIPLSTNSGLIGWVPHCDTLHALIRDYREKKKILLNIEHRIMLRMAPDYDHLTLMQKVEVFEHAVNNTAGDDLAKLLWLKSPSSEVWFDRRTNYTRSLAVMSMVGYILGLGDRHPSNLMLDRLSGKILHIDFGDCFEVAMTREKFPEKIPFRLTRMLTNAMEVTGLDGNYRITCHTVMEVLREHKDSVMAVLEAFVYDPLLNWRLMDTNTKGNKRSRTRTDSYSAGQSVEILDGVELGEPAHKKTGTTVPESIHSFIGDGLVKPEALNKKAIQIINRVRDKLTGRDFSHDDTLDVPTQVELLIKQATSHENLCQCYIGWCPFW
# PROTOCOL_SUMMARY: mTOR kinase assay (DELFIA format, purified enzyme)
# Assay type: biochemical
# PROTOCOL_CONDITIONS: read-out: IC50 mTOR
Scale explanation: pIC50 corresponds to minus log10 of a concentration expressed in moles per litre.

See these solved cases before continuing.
{"columns": ["SMILES_NOTATION", "SYSTEM_NAME", "pIC50"],
 "data": [
  ["CN1CCN(c2ccc(NC(=O)Nc3ccc(-c4nc(N5CC6CCC(C5)O6)nc(N5[C@H](CO)CC[C@@H]5CO)n4)cc3)cc2)CC1", "Human mTOR (FLAG-TOR) (Homo sapiens)", 9.25],
  ["COCC(COC)Oc1nc(-c2ccc(NC(=O)OCCO)cc2)nc(N2CC3CCC(C2)O3)n1", "Human mTOR (FLAG-TOR) (Homo sapiens)", 7.66],
  ["CC(C)N1CCN(C(=O)c2ccc(NC(=O)Nc3ccc(-c4nc(N5CCC5)nc(N5CCOCC5)n4)cc3)cc2)CC1", "Human mTOR (FLAG-TOR) (Homo sapiens)", 7.74],
  ["CN1CCN(c2ccc(NC(=O)Nc3ccc(-c4nc(NS(=O)(=O)c5ccccc5)nc(N5CCOCC5)n4)cc3)cc2)CC1", "Human mTOR (FLAG-TOR) (Homo sapiens)", 6.96],
  ["CCc1nc(-c2ccc(NC(=O)Nc3ccc(C(=O)N4CCNC(C)(C)C4)cc3)cc2)nc(N2CCOCC2)n1", "Human mTOR (FLAG-TOR) (Homo sapiens)", 7.68],
  ["Cc1ccc(-c2nc(-c3ccc(NC(=O)Nc4ccc(C(=O)NCCCN(C)C)cc4)cc3)nc(N3CCOCC3)n2)cc1", "Human mTOR (FLAG-TOR) (Homo sapiens)", 7.92]
]}

Enter pIC50 (test system Human mTOR (FLAG-TOR) (Homo sapiens)) for "O=C(Nc1ccncc1)Nc1ccc(-c2nc(N3CCCOCC3)nc(N3CCOCC3)n2)cc1"
8.70

Enter pIC50 (test system Human mTOR (FLAG-TOR) (Homo sapiens)) for "O=C(Nc1ccc(C(=O)N2CCC(N3CCOCC3)CC2)cc1)Nc1ccc(-c2nc(N3CCOCC3)nc(N3CCOCC3)n2)cc1"
9.07

Enter pIC50 (test system Human mTOR (FLAG-TOR) (Homo sapiens)) for "O=C(Nc1ccc(-c2nc(N3CCSCC3)nc(N3C4CCC3COC4)n2)cc1)Nc1cccnc1"
8.26

Enter pIC50 (test system Human mTOR (FLAG-TOR) (Homo sapiens)) for "CN1CCN(C2CCN(c3nc(-c4ccc(NC(=O)Nc5ccncc5)cc4)nc(N4CC5CCC(C4)O5)n3)CC2)CC1"
7.13

Enter pIC50 (test system Human mTOR (FLAG-TOR) (Homo sapiens)) for "C[C@@H]1COCCN1c1nc(-c2ccc(NC(=O)Nc3ccc(N4CCN(C)CC4)nc3)cc2)nc(N2C3CCC2COC3)n1"
9.09

Enter pIC50 (test system Human mTOR (FLAG-TOR) (Homo sapiens)) for "CN(C)CCNC(=O)c1ccc(NC(=O)Nc2ccc(-c3nc(C4CCOCC4)nc(N4CCOCC4)n3)cc2)cc1"
9.92

Enter pIC50 (test system Human mTOR (FLAG-TOR) (Homo sapiens)) for "CCN(C)c1nc(-c2ccc(NC(=O)Nc3cccnc3)cc2)nc(N2CC3CCC(C2)O3)n1"
8.26

Enter pIC50 (test system Human mTOR (FLAG-TOR) (Homo sapiens)) for "O=C(Nc1ccc(-c2nc(NCCN3CCOCC3)nc(N3CC4CCC(C3)O4)n2)cc1)Nc1cccnc1"
7.80

Enter pIC50 (test system Human mTOR (FLAG-TOR) (Homo sapiens)) for "COC(=O)c1ccc(NC(=O)Nc2ccc(-c3nc(-c4ccccc4)nc(N4CCOCC4)n3)cc2)cc1"
9.90

Enter pIC50 (test system Human mTOR (FLAG-TOR) (Homo sapiens)) for "CC(C)Nc1nc(-c2ccc(NC(=O)Nc3ccc(N4CCNCC4)cc3)cc2)nc(N2C3CCC2COC3)n1"
8.49

Enter pIC50 (test system Human mTOR (FLAG-TOR) (Homo sapiens)) for "O=C(Nc1ccc(-c2nc(-c3ccccc3)nc(N3CCOCC3)n2)cc1)Nc1cccc(C(=O)O)c1"
7.31

Enter pIC50 (test system Human mTOR (FLAG-TOR) (Homo sapiens)) for "CCc1nc(-c2ccc(NC(=O)Nc3ccc(C(=O)Nc4ccc(N5CCN(C)CC5)cc4)cc3)cc2)nc(N2CCOCC2)n1"
8.22

Enter pIC50 (test system Human mTOR (FLAG-TOR) (Homo sapiens)) for "CCc1nc(-c2ccc(NC(=O)Nc3cccc(C(=O)O)c3)cc2)nc(N2CCOCC2)n1"
7.92

Enter pIC50 (test system Human mTOR (FLAG-TOR) (Homo sapiens)) for "CCCN1CCN(C(=O)c2ccc(NC(=O)Nc3ccc(-c4nc(N5CCOC[C@@H]5C)nc(N5CCOC[C@@H]5C)n4)cc3)cc2)CC1"
8.70

Enter pIC50 (test system Human mTOR (FLAG-TOR) (Homo sapiens)) for "O=C(Nc1ccc(-c2nc(N3CCOCC3)nc(N3CCOCC3)n2)cc1)Nc1ccnnc1"
8.64

* * *

# SYSTEM_NAME: PI3K-γ (Homo sapiens, UniProt P48736)
# PROTOCOL_SUMMARY: PI3K-gamma fluorescence polarization assay
# PROTOCOL_CONDITIONS: read-out: IC50 PI3Kγ
MEASURED_QUANTITY: IC50 (nM)
Only the number, expressed in nM, is required.

{"columns": ["COMPOUND", "VALUE_OBSERVED"],
 "data": [
  ["CC(C)CN1CCN(C(=O)c2ccc(NC(=O)Nc3ccc(-c4nc(N5CCOC[C@@H]5C)nc(N5CCOC[C@@H]5C)n4)cc3)cc2)CC1", 133],
  ["CC(C)(C)OC(=O)N1CC(Nc2nc(-c3ccc(NC(=O)Nc4ccncc4)cc3)nc(N3CCOCC3)n2)C1", 92],
  ["CC(=O)c1ccc(NC(=O)Nc2ccc(-c3nc(N4CCOCC4)nc(N4C5CCC4COC5)n3)cc2)cc1", 119],
  ["COC(=O)c1ccc(NC(=O)Nc2ccc(-c3nc(N4CCOCC4)nc(N4CCOC[C@@H]4C)n3)cc2)cc1", 116]
]}

// switching to the query compound
For the compound "Cc1cc(NC(=O)Nc2ccc(-c3nc(N4CCOCC4)nc(N4CCOC[C@@H]4C)n3)cc2)ccn1" , give its measured IC50 value.
92

* * *

# SYSTEM_NAME: UniProtKB P42345
# PROTOCOL_SUMMARY: mTOR kinase assay (DELFIA format, purified enzyme)
# Assay type: biochemical
# PROTOCOL_CONDITIONS: read-out: IC50 mTOR
MEASURED_QUANTITY: IC50

See these solved cases before continuing.
{"columns": ["SMILES_NOTATION", "IC50"],
 "data": [
  ["O=C(Nc1ccc(-c2nc(N3CC4CCC(C3)O4)nc(N3CC4CCC(C3)O4)n2)cc1)OCCO", "4.15 nM"],
  ["COC(=O)c1cccc(NC(=O)Nc2ccc(-c3nc(-c4ccc(C)cc4)nc(N4CCOCC4)n3)cc2)c1", "2100 nM"],
  ["CC(C)c1nc(-c2ccc(NC(=O)Nc3ccc(C(=O)N4CCN(C(C)C)CC4)cc3)cc2)nc(N2CCOCC2)n1", "1.1 nM"]
]}

// switching to the query compound
For the compound "O=C(Nc1ccccc1)Nc1ccc(-c2nc(OC3CCOCC3)nc(N3CCOCC3)n2)cc1" , give its measured IC50 value.
1.8 nM
